target: rat CB2 receptors (HEK cells) (Rattus norvegicus (Rat)); experiment: rat CB2 cyclase functional assay (HitHunter cAMP); format: cell-based; settings: HEK cells, forskolin 18 μM; read-out: rat CB2 cyclase (EC50)
Could you mark each record Fulfilled if its EC50 falls strictly under 0.3 nM, and Not fulfilled if it equals or exceeds it?

Example entries and their recorded answers appear below.
CC(C)(C)c1cn(C[C@H]2CCCO2)/c(=N/C(=O)c2cc(C(F)(F)F)ccc2OC[C@@H]2CCN2)s1 [Example 2]: Not fulfilled
CC(C)(C)c1cn(C[C@H]2CCCO2)/c(=N/C(=O)c2cc(C(F)(F)F)ccc2OCc2ccccc2)s1 [Example 36]: Not fulfilled
CN1CCCC[C@H]1COc1ccc(C(F)(F)F)cc1C(=O)/N=c1\sc(C(C)(C)C)cn1C[C@H]1CCCO1 [Example 5]: Fulfilled
CN1CCC[C@H]1COc1ccc(C#N)cc1C(=O)/N=c1\sc(C(C)(C)C)cn1C[C@H]1CCCO1 [Example 59]: Fulfilled

Inquiry: Hello, I'm reviewing records and need to know if EC50 of CC(C)(C)c1cn(C[C@H]2CCCO2)/c(=N/C(=O)c2cc(C(F)(F)F)ccc2OC[C@H]2CCCCN2)s1 [Example 6] is below 0.3 nM. Could you check?
Reply text: Not fulfilled

Inquiry: Regarding CN1CC(COc2ccc(C(F)(F)F)cc2C(=O)/N=c2\sc(C(C)(C)C)cn2C[C@H]2CCCO2)C1 [Example 12] , kindly confirm whether its EC50 is beneath 0.3 nM.
Reply text: Not fulfilled

Inquiry: Bench note: check whether CC(C)(C)c1cn(C[C@H]2CCCO2)/c(=N/C(=O)c2cc(C(F)(F)F)ccc2OC[C@H]2CCC[N+]2(C)[O-])s1 (some centres unmarked) [Example 49] shows EC50 below 0.3 nM
Reply text: Not fulfilled

Inquiry: # TODO verify EC50 < 0.3 nM strictly for this compound: CN1CCC[C@@H]1COc1ccc(C(F)(F)F)cc1C(=O)/N=c1\sc(C(C)(C)C)cn1C[C@H]1CCCO1 [Example 26]
Reply text: Not fulfilled

Inquiry: Determine whether this compound shows EC50 lower than 0.3 nM (ties excluded): CN1C[C@H](F)C[C@H]1COc1ccc(C(F)(F)F)cc1C(=O)/N=c1\sc(C(C)(C)C)cn1C[C@H]1CCCO1 [Example 54]
Reply text: Fulfilled

Inquiry: is_below(EC50, 0.3 nM) for CC(C)(C)c1cn(C[C@@H]2CCCO2)/c(=N/C(=O)c2cc(C(F)(F)F)ccc2OC[C@H](N)CO)s1 [Example 33] ?
Reply text: Fulfilled

Inquiry: Does CN1CC[C@@H]1COc1ccc(C(F)(F)F)cc1C(=O)/N=c1\sc(C(C)(C)C)cn1C[C@H]1CCCO1 [Example 8] have EC50 strictly under 0.3 nM?
Reply text: Not fulfilled

Inquiry: Please check: EC50 for CN1CCC[C@H]1COc1ccc(C(F)(F)F)cc1C(=S)/N=c1\sc(C(C)(C)C)cn1C[C@H]1CCCO1 [Example 51] , strictly under 0.3 nM or not?
Reply text: Not fulfilled

Inquiry: Find out if reported EC50 for CC(C)(C)c1cn(C[C@H]2CCCO2)/c(=N/C(=O)c2cc(C(F)(F)F)ccc2OC[C@@H]2CCCCN2)s1 [Example 4] is less than 0.3 nM
Reply text: Not fulfilled

Inquiry: Hello, I'm reviewing records and need to know if EC50 of CC(C)(C)c1cn(C[C@H]2CCCO2)/c(=N/C(=O)c2cc(C(F)(F)F)ccc2OCc2cnccn2)s1 [Example 19] is below 0.3 nM. Could you check?
Reply text: Not fulfilled
